Reported GI50 is given for each of the following substances.
System: TK-10
assay: NCI tumour cell line growth inhibition, 48 h
In all, about 56,000 sequences went through this assay and about 2,300 (4.1%) were called active. These entries were drawn from the full list. Entries with a potency or affinity are not part of this list.
recorded_endpoint: GI50 (µM)

{"columns": ["substance", "experimental_value"],
 "data": [
  ["[Bis(aminomethyl)ethylmethylsilane]tetrachloroplatinum(IV), CHEMBL2146192", 13.1],
  ["[Bis(aminomethyl)tetramethylenesilane]tetrachloropaltinum(IV), CHEMBL2146189", 9.91],
  ["cis-Bis[[(trimethylsilyl)methyl]amino]tetrachloroplatinum(IV), CHEMBL2146191", 13.2],
  ["mu-(1,7-nanodiamine-N,N')bis-(cis-aminedichloroplatimum (II)), CHEMBL2146215", 62.8],
  ["[Bis(aminomethyl)tetramethylenesilane]dichloropaltinum(II), CHEMBL2146205", 32.2],
  ["[Bis(aminomethyl)diethylsilane]tetrachloroplatinum(IV), CHEMBL2146203", 13.4]
]}
